Where these numbers come from: ChEMBL document CHEMBL4689842

The following compounds are listed with their measured Population Membrane Permeable-Phenotype (%) values.
test system: Fibroblast; assay: Multiplex assay against human fibroblast; assay type: toxicity, cell-based; conditions: 48 h, 1 µM, compound concentration 1 uM, replicate 1

These recorded examples may help you get a feel for the data.
{"compound": "CC(C)C[C@H](NC(=O)[C@H](Cc1ccccc1)NC(=O)CNC(=O)CNC(=O)[C@@H](N)Cc1ccc(O)cc1)C(=O)O [ENKEPHALIN]", "target": "Fibroblast", "result": "15%"}
{"compound": "CCCCN(CC)c1nc(C)nc2c1c(C)cn2-c1c(C)cc(C)cc1C.Cl", "target": "Fibroblast", "result": "13%"}
{"compound": "Cl.NC[C@@H]1O[C@H](C23CC4CC(CC(C4)C2)C3)Cc2c1ccc(O)c2O", "target": "Fibroblast", "result": "10%"}

Give the measured Population Membrane Permeable-Phenotype (%) for N#CCNC(=O)c1ccc(-c2ccnc(Nc3ccc(N4CCOCC4)cc3)n2)cc1 [MOMELOTINIB]
16%

* * *

system: Fibroblast; test: Multiplex assay against human fibroblast; assay type: toxicity, cell-based; settings: 48 h, 1 µM, compound concentration 1 uM, replicate 2
observation type: Population Pyknosed Nuclei (%)
Reply with just the number (in %).

{"molecule": "CC(C)C[C@H](NC(=O)[C@H](Cc1ccccc1)NC(=O)CNC(=O)CNC(=O)[C@@H](N)Cc1ccc(O)cc1)C(=O)O", "numeric result": 1}

For the molecule CCCc1cc(C)[nH]c(=O)c1CNC(=O)c1cc(-c2ccc(N3CCN(C(C)C)CC3)nc2)cc2c1cnn2C(C)C , report Population Pyknosed Nuclei (%).
1

Report measured Population Pyknosed Nuclei (%); entry is CC(C)[C@H](CO)Nc1nc(Nc2cccc(Cl)c2)c2ncn(C(C)C)c2n1
2

Give reported Population Pyknosed Nuclei (%) value for CN(c1cc(C(F)(F)F)nc(OCCC(=O)O)n1)c1cccc2c1CCC2
4

Tell us which Population Pyknosed Nuclei (%) value is on record for Cc1c(P(=S)(c2ccccc2)c2ccccc2)n2ccccc2[n+]1C/C=C/c1ccccc1.[Br-]
0

Give reported Population Pyknosed Nuclei (%) value for C[C@@H](Oc1cc(-n2cnc3ccc(CN4CCN(C)CC4)cc32)sc1C(N)=O)c1ccccc1C(F)(F)F
5

For the molecule CC(Cc1ccc(O)c(O)c1)C(C)Cc1ccc(O)c(O)c1 (centres undefined) [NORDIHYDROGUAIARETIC ACID] , report Population Pyknosed Nuclei (%).
4

Report measured Population Pyknosed Nuclei (%); entry is N#Cc1cccc(C(=O)Nc2cc(-c3ccccc3)nn2-c2ccccc2)c1
1

Supply Population Pyknosed Nuclei (%) value. Item: CC(C)c1cc(Nc2nc(N3CCC[C@H](N)C3)ncc2C(N)=O)cc(C(C)C)n1
10

* * *

system: HEK-293T; experiment: Multiplex assay against HEK293T; type: toxicity, cell-based; conditions: human, 12 h, 10 µM, compound concentration 10 uM, replicate 1
Lab note: compare Population Apoptotic (%) with 60%, writing true if less and false if equal or more.

Observe how each entry below is paired with its result.
{"compound": "c1ccc(-c2oc3ncnc(NC[C@@H]4CCCO4)c3c2-c2ccccc2)cc1", "label value": "false"}
{"compound": "CC(C)[C@H](CO)Nc1nc(Nc2cccc(Cl)c2)c2ncn(C(C)C)c2n1 [PURVALANOLA]", "label value": "false"}
{"compound": "C=CC(=O)Nc1cc(-n2c(=O)ccc3cnc4ccc(-c5ccc(NS(C)(=O)=O)cc5)cc4c32)ccc1C", "label value": "true"}

Is it true that Population Apoptotic (%) reported for N#CCNC(=O)c1ccc(-c2ccnc(Nc3ccc(N4CCOCC4)cc3)n2)cc1 [MOMELOTINIB] is less than 60%?
true
